Biological target: Gonadotropin-releasing hormone receptor (Homo sapiens)
Sequence (P30968 whole entry): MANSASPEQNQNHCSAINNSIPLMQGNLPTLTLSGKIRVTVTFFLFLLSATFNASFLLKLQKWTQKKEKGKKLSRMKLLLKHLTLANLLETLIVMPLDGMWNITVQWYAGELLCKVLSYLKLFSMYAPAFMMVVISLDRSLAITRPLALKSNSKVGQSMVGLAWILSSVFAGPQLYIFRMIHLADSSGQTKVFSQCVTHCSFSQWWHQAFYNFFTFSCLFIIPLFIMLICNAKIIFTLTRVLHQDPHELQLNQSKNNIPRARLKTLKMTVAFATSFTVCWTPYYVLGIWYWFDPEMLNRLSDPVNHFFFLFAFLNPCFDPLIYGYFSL
Assay: Binding affinity against human luteinizing releasing hormone receptor cloned in CHO cells
Assign Ki to each entry below.
# output: bare number, implied unit nM

Determine from records and report Ki for CC[C@H]1OC(=O)[C@H](C)[C@@H](OC2C[C@@](C)(OC)[C@@H](O)[C@H](C)O2)[C@H](C)[C@@H](OC2O[C@H](C)C[C@H](N(C)C3CCCC3)[C@H]2O)[C@@](C)(OC)C[C@@H](C)C(=O)[C@H](C)[C@H]2N(CCc3ccc(Cl)c(Cl)c3)C(=O)O[C@]12C (stereo not given in full)
1.51

Please indicate Ki recorded for CC[C@H]1OC(=O)[C@H](C)[C@@H](OC(=O)N2C(=O)OC[C@@H]2C)[C@H](C)[C@@H](OC2O[C@H](C)C[C@H](N(C)C3CCCC3)[C@H]2O)[C@@](C)(OC)C[C@@H](C)C(=O)[C@H](C)[C@H]2N(CCc3ccc(Cl)cc3)C(=O)O[C@]12C (stereo not given in full)
3.89

Supply Ki value. Item: CC[C@H]1OC(=O)[C@H](C)[C@@H](OC2C[C@@](C)(OC)[C@@H](O)[C@H](C)O2)[C@H](C)[C@@H](OC2O[C@H](C)C[C@H](N(C)C3CCCC3)[C@H]2O)[C@@](C)(OC)C[C@@H](C)C(=O)[C@H](C)[C@H]2N(CCc3ccc(Cl)cc3)C(=O)O[C@]12C (stereo not given in full)
7.59

Query Ki for CC[C@H]1OC(=O)[C@H](C)[C@@H](OC2C[C@@](C)(OC)[C@@H](O)[C@H](C)O2)[C@H](C)[C@@H](OC2O[C@H](C)C[C@H](N(CC3CC3)CC3CC3)[C@H]2O)[C@@](C)(OC)C[C@@H](C)C(=O)[C@H](C)[C@H]2N(CCc3ccc(F)c(Cl)c3)C(=O)O[C@]12C (stereo not given in full)
0.851

State its Ki: CC[C@H]1OC(=O)[C@H](C)[C@@H](OC(=O)N2C(=O)OC[C@@H]2C)[C@H](C)[C@@H](OC2O[C@H](C)C[C@H](N(CC3CC3)CC3CC3)[C@H]2O)[C@@](C)(OC)C[C@@H](C)C(=O)[C@H](C)[C@H]2N(CCc3ccc(Cl)c(Cl)c3)C(=O)O[C@]12C (stereo not given in full)
1.29

Where do the numbers come from? From ChEMBL document CHEMBL1147642.
